meta.source: patent US20140121216A1

system.tested: 5-HT6 (h), human recombinant (CHO cells) (Homo sapiens, UniProt P50406)
Construct: expressed in transfected cells; host or cells: CHO cells
Sequence (P50406 whole entry): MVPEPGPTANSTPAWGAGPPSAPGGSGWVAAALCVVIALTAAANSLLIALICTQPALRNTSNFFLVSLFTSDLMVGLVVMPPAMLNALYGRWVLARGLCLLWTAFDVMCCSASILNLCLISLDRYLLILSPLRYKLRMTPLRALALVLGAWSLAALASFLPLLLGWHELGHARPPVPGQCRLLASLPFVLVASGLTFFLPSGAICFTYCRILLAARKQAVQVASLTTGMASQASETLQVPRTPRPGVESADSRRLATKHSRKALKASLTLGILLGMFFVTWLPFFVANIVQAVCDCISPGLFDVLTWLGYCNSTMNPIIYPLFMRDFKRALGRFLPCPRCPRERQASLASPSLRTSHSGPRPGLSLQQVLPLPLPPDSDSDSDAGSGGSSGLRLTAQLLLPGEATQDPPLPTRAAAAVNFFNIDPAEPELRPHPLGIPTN
assay.overview: Cellular functional assay 5-HT6 (h) antagonism
Format: cell-based
cond: compound 1×10^−6 M, stimulus serotonin 100 nM, read-out: 5-HT6-antag [%]
experimental.endpoint: inhibition at 1 µM (%)
The reply should contain only the number, in %.

Lab note: measured inhibition at 1 µM of O=S(=O)(c1ccccc1)n1ccc2c(N3CCN(CCCOc4ccccc4)CC3)cccc21 [Compound 12] was 73

Lab note: measured inhibition at 1 µM of O=C1CCc2ccc(OCCCCN3CCN(c4cccc5c4ccn5Cc4cccc(F)c4)CC3)cc2N1 [Compound 63] was 61

Lab note: measured inhibition at 1 µM of O=S(=O)(c1ccccc1)n1ccc2c(N3CCN(CCCOc4ccc5ccoc5c4)CC3)cccc21 [Compound 25] was 98

Lab note: measured inhibition at 1 µM of O=C1CCc2ccc(OCCCCN3CCN(c4cccc5c4ccn5Cc4ccccc4)CC3)cc2N1 [Compound 5] was 42

Lab note: measured inhibition at 1 µM of O=C1CCc2ccc(OCCCCN3CCN(c4cccc5c4ccn5Cc4cccc(Cl)c4)CC3)cc2N1 [Compound 67] was 53

Lab note: measured inhibition at 1 µM of O=C1CCc2ccc(OCCCN3CCN(c4cccc5c4ccn5Cc4ccccc4)CC3)cc2N1 [Compound 4] was 73

Lab note: measured inhibition at 1 µM of O=S(=O)(c1ccccc1)n1ccc2c(N3CCN(CCCOc4ccc(F)cc4)CC3)cccc21 [Compound 15] was 88

Lab note: measured inhibition at 1 µM of O=C1CCc2ccc(OCCCN3CCN(c4cccc5c4ccn5S(=O)(=O)c4ccccc4)CC3)cc2N1 [Compound 23] was 42

Lab note: measured inhibition at 1 µM of NC(=O)c1ccccc1OCCCN1CCN(c2cccc3c2ccn3S(=O)(=O)c2ccccc2)CC1 [Compound 72] was 103

Lab note: measured inhibition at 1 µM of O=C1CCc2ccc(OCCCCN3CCN(c4cccc5c4ccn5S(=O)(=O)c4ccccc4)CC3)cc2N1 [Compound 24] was 88.7
